molecular target: ABHD12 (Mus musculus, UniProt Q99LR1); construct: from tissue; host or cells: mouse brain, membrane fraction; assay: Gel-based competitive ABPP in vitro, mouse brain membrane proteome; format: biochemical; details: mouse brain (mem) proteome
Sequence (Q99LR1 whole entry): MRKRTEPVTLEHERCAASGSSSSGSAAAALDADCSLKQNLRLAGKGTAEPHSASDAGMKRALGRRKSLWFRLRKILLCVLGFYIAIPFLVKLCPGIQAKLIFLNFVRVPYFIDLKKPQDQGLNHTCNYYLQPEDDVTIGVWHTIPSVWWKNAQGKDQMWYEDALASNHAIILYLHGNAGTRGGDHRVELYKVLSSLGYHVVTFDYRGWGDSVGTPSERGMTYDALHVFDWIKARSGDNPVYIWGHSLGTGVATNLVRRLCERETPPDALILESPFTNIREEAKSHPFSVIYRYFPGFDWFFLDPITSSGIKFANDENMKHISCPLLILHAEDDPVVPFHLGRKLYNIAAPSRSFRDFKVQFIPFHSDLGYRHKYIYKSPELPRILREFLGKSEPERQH
PROPERTY NAME: ABHD12 in vitro enzyme activity, % @ 10 μM (% @)

Completed entries (count: 2):
1. C#Cc1ccc(CCC2CCN(C(=O)ON3C(=O)[C@H]4CN(C(=O)N5CCOCC5)CCN4C3=O)CC2)cc1 [Compound 49] ... 0
2. COc1ccc(N2CCN(C(=O)ON3C(=O)[C@@H]4CN(CC5CCN(Cc6ccccc6)CC5)CCN4C3=O)CC2)cc1 [Compound 42] ... 0

(P) O=C(ON1C(=O)[C@@H]2CN(Cc3ccc(Br)cc3)CCN2C1=O)N1CCC(CCc2ccc(Cl)cc2)CC1 [Compound 40]
(Q) C#Cc1ccc(CCC2CCN(C(=O)ON3C(=O)C4CN(C(=O)N5CCOCC5)CCN4C3=O)CC2)cc1 (stereo not shown) [Compound 53]
Of the two listed items, P and Q , which carries the larger ABHD12 in vitro enzyme activity, % @ 10 μM figure? Give the chosen item's label as your response. Q

* * *

Target: ABHD4 (Homo sapiens)
Sequence (Q8TB40 1-342): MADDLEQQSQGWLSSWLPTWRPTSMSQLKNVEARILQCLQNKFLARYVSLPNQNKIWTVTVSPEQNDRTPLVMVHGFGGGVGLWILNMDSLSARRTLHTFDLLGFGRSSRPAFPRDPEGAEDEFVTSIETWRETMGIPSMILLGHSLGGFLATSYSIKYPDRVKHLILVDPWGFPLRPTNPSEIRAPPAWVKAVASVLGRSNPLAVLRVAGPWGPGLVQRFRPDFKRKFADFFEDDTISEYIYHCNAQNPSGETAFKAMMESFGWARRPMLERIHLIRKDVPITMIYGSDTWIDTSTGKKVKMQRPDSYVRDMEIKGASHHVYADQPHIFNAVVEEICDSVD
Assay: Gel-based competitive ABPP, recombinant enzyme in transfected HEK293T cell lysates
Assay type: biochemical
Design: myc-his; expressed in transfected cells; host or cells: HEK293T, transient transfection, pcDNA3.1/myc-his; lysate used in vitro
Conditions: recombinant, transfected HEK293T lysates; read-out: hABHD4 in vitro potency (IC50)
Description: HEK293T cells were seeded at 2×10^5 per well on 6 well plates and grown for 48 h. They were then transfected with mABHD3 (pCMV-Sport6), hABHD4 (pcDNA3.1/myc-his), hPPT1 (pCMV6-XL5), or hPPT1 S115A (pCMV6-XL5), by incubating 0.5 μg of DNA with 3 μL of PEI MAX (1 mg/mL, Polysciences, Inc) in serum-free DMEM for 30 min, then adding them to cells. After 48 h cells were either treated with compound in situ, as described above, or harvested for in vitro studies. […]
PROPERTY NAME: IC50 (nM)

Completed entries (count: 2):
1) COC(=O)C1CCN(C(=O)ON2C(=O)C3CN(Cc4ccc(Oc5ccccc5)cc4)CCN3C2=O)CC1 (centres unmarked) [Compound 31] ... 8200
2) COc1ccc(N2CCN(C(=O)ON3C(=O)C4CN(Cc5ccc(Oc6ccccc6)cc5)CCN4C3=O)CC2)cc1 (centres unmarked) [Compound 37] ... 100

(A) O=C(ON1C(=O)C2CN(Cc3cccc(Oc4ccccc4)c3)CCN2C1=O)N1CCC(CCc2ccc(Cl)cc2)CC1 (centres unmarked) [Compound 35]
(B) COc1ccc(N2CCN(C(=O)ON3C(=O)C4CN(Cc5cccc(Oc6ccccc6)c5)CCN4C3=O)CC2)cc1 (centres unmarked) [Compound 36]
Of the two listed items, A and B , which carries the larger IC50 figure? Give the chosen item's label as your response. A
